Assay: yeast display, Sf9 membrane polyspecificity reagent, FACS + sequencing; frameworks hold sequencing errors
READOUT KIND: polyreactivity (PSR sort gate)

These solved cases illustrate the format of a correct answer.
1) QVQLVESGGGLDQAGGSLRLSCAASGIIFEQYAMGWYRQAPGKERELVAAISSGGTTYADSVKGRFTISRDNAKNTVYLQMNSLKPEYTAVYYCNDDLSWHGPDWSDYEYDYWGQGTQVTVSS; low polyreactivity
2) QVQLEESGGGLVQAGGRLRLSCAASGSTFRNYAMGWNITAAGKERELVAAISTNGGRTFYADSVKGRFTISRDNAKNTVYLQMNSLKPEDNAVYYCAAEYGLYAPGYYYWGQGTQVTVSS; low polyreactivity
3) QVQLVESVVGLDQAGGSLSLSCAASAIILYYYSMGWYRQAPGKEREVVAAISSGGNTYYADSVKGRFTISRDNAKNTVYFQMNSLKPEDTAVYYCAAGNVIGGEYDYWGLGTQVTVSS; low polyreactivity
4) QVQLVESGGGLVQAGGSLRLSCAASGRTFNTYAMGWYRQAPGKERELVADISVSGGRTYYADSVKGRFTISRDNAKNTVYLQMNSLKPEDNAVYYCAKRIRYNWTFDYWGQGTQVTVSS; low polyreactivity
5) QVQLVESGGVLVQAGGSLRLSCAASGSIFGIYTMGWYIHATGKERELVAAISWSGGSTYYADSVKGRFTISRDNAKNTVFLQMNSLKPEDTAVYYCAAVPWASDGYDSWGQGTQVTVSS; low polyreactivity

# return polyreactivity (PSR sort gate) for each item in the list
1. QVHLEESGGGLVQAGGSLRLRSAATGRIFKRYAMGWYIQAPGKERDLVAAINWSTGGTYYADSVKGRFTISRDNAKNSVYLHMNSLKPVDTAVYSCAADGDAWFEYLDVEYYYWGQGTQVTVSS
2. QVQLVESGGGLVQAGGSLRLSCAASGSTFKSYAKGWYRQAPGKEREFVAAIRGNGARTYYADSVKGRITISRDNAKNTVYFQMNSLKPEDTAVYYCNAVRYSFSDSSVDYWGQGTQVTVSS

stdout:
low polyreactivity
high polyreactivity

# return polyreactivity (PSR sort gate) for each item in the list
1. QVQLVESGGGLVQAGGSLRLSCAASGFTLAGYDMGWSRQAPGKERELVATLSTYADSVKGRFTISRDNAKNTVYLQMNSLKPEDTAVYYCAKKYVWTHNYWGQGTQVTVSS
2. QVQLVESGAGLVQAGGSLRLSCAASVRIFFYGMGWYIQAPGKQMELVATITSVSNTYYADSVKGRFTISRDNAKNTVYLQMNSLKPEDTAVYYCAARQDRYRYRYGYWGHGTQVTVSS
3. QVQLVESGGGLVQAGGSLRLSCAGSGSIFPFYVMGWYRQAPGKEREFVATISSRGGSTYYADSVKGRFTISRDNAKNTVYLQMNSLKPEDTAVYYCAAGWYRTDWGQRLHTYYYWGQGTQVTVSS
4. QVQLVESGGGLVQAGGSLRLSCAASGFTFGGYAMGWYRQAPGKERELVAAIDSSGGRTYYADSVKGRFTISRDNAKNTVYLQMNSLKPEDTAVYYCNAGNSGWWRYDYDYWGQGTQVTVSS

stdout:
1: low polyreactivity; 2: high polyreactivity; 3: high polyreactivity; 4: high polyreactivity

Reference for the values: the nanobody polyreactivity screen of Harvey et al. (2022)
